All values here come from PubChem BioAssay AID179.

tested on: CEM cells HIV-1 protection, formazan growth assay; experiment: NCI AIDS Antiviral Assay
pEC50: −log10 of the molar value.
Reported pEC50 values are given for each entry in this list.
Endpoint Name: pEC50

- CCC(C)N1CN(c2ccccc2)C2(CCN(CC3COc4ccccc4O3)CC2)C1=O (stereo not given): < 3.70
- O=S(Cc1ccccc1)/C(=C/NC(=S)Nc1cc(Cl)ccc1Cl)c1ccccc1 (stereo not given): < 3.70
- O=C(/C(=C1\SS/C(=C(/C(=O)c2ccccc2)c2ccccc2)S1)c1ccccc1)c1ccccc1: < 3.70
- Cc1cn(CC2=NCCCN2)c(=O)[nH]c1=O: < 3.70
- O=[N+]([O-])c1ccc(NN=C(c2ccccc2)c2ccccc2)c([N+](=O)[O-])c1: < 4.28
- COc1ccc(/C(Cl)=C/c2ccc(Cl)c(Cl)c2)cc1: < 3.70
- Cc1cccc(/C=N/NC(=S)NCCc2ccccn2)n1: < 3.70
- O=C1COc2ccc(F)cc2N1: < 3.42
- COC(=O)C(=O)/C=C(\O)c1ccc(Cl)cc1: < 3.70
- COC1=C(C2(O)C(=O)N(C)c3ccccc32)C(=O)C(OC)=C(C2(O)C(=O)N(C)c3ccccc32)C1=O (stereo not given): < 4.27
- O=C(O)c1cc2c(ncc3c(=O)n(-c4ccccc4)[nH]c32)s1: < 3.94
- COc1ccc(-c2onc(-c3c(C)cc(C)cc3C)c2C2=NCCN2)cc1: < 4.14
- CCOC(=O)C(=O)Nc1cc(Cl)c(Cl)cc1Cl: < 4.20
- Cc1cn(C2CC(CCN(O)CC3OC(n4cc(C)c(=O)[nH]c4=O)CC3O[Si](C)(C)C(C)(C)C)C(CO[Si](C)(C)C(C)(C)C)O2)c(=O)[nH]c1=O (stereo not given): < 3.70
- c1ccc(C2(c3cc4ccccc4[nH]3)OCCO2)nc1: < 3.70
- COc1ccc(C2CC3(c4ccccc4)ON=C(c4ccccc4)N3c3ccccc3S2)cc1 (stereo not given): < 3.70
- Cc1ccc(Sc2ccc(C)cc2[N+](=O)[O-])c([N+](=O)[O-])c1: < 4.01
- COc1ccc(/C(CC2OC(=O)c3ccccc32)=N\NC(N)=O)cc1 (stereo not given): < 3.47
- COC1(O)C(=O)c2ccccc2OC1(OC)c1ccc(Cl)cc1 (stereo not given): < 3.70
- C[n+]1c(-c2ccc(/C=N/Nc3ccnc(N/N=C/c4ccc(-c5cn6ccsc6[n+]5C)cc4)n3)cc2)cn2ccsc21: 4.94
- C=C(CCCC(C)OC(C)OCC)[Si](C)(C)C (stereo not given): < 4.41
- Cc1cn(C2CC(/[N+]([O-])=N\Nc3ccc([N+](=O)[O-])cc3)C(CO)O2)c(=O)[nH]c1=O (stereo not given): < 3.70
- C[CH2][Sn]([CH2]C)([O]C(=O)c1cccc(F)c1)[O][Sn]([CH2]C)([CH2]C)[O]C(=O)c1cccc(F)c1: < 5.23
- Nc1ccc(N=Nc2ccc(-c3ccc(N=Nc4c(S(=O)(=O)O)cc5cc(S(=O)(=O)O)c(N=Nc6ccc([N+](=O)[O-])cc6)c(N)c5c4O)cc3)cc2)c2cc(S(=O)(=O)O)ccc12: < 4.71
- C[C@@H](c1ccccc1)N1CN(C(=O)OCc2ccccc2)C(C)(C)CC1=O: < 3.70
- CC1=CC2c3c(O)cc(-c4cc5ccc(O)cc5o4)cc3OC3(c4ccc(O)c5c4OC(C)(C)C=C5)Oc4cc(O)ccc4[C@H](C1)C23 (stereo not given in full): < 4.68
- Nc1ccccc1SSc1ccccc1C(=O)O: 4.45
- CN(C)c1ccc(/C=C(/C(=O)c2ccccc2)c2ccccc2)cc1: < 4.80
- CN(C)c1nc(=NCc2ccccn2)ss1: < 4.76
- O=C(NCCO)c1c(CNC2CCCCC2)n([O-])c2ccccc2[n+]1=O: < 3.30
- CCOC(=O)/C(=C/c1ccc(OC)cc1)N(CC)CC: < 3.33
- N#CC(C(=O)C(=O)Nc1ccc(Cl)c(Cl)c1)c1ccc(Cl)cc1 (stereo not given): < 3.87
- CC(=O)Nc1ccc(C(=O)OCC2OC(n3cc(C)c(=O)[nH]c3=O)CC2N=[N+]=[N-])cc1 (stereo not given): 6.83
- Nc1ccc(S(=O)(=O)C(=O)O)cc1: < 2.91
- O=[p+]1c2ccccc2[nH]c2ccccc21: < 3.70
- FC(F)(F)c1cccc(N2NC(=S)N3C=CC=CC32)c1 (stereo not given): < 4.08
- CC(=O)OCC1OC(n2c(=S)n(-c3ccccc3)c(=S)c3ccccc32)C(OC(C)=O)C(OC(C)=O)C1OC(C)=O (stereo not given): < 4.78
- CC1=C(OC2OC(CO)C(O)C(O)C2O)C(=O)C[C@H]2C1=CC[C@@H]1[C@@]2(C)C(=O)C[C@]2(C)[C@@H]([C@@](C)(O)C(=O)CCC(C)(C)O)[C@H](O)C[C@@]12C (stereo not given in full): < 3.70
- COc1cccc(C(=O)C2C(=O)N(C)CCc3ccccc32)c1OC (stereo not given): < 3.83
- C[N+]12C(=O)CC3OCC=C4C[N+]5(C)CCC6(c7ccccc71)C2C3C4CC65O (stereo not given): < 3.40
